target: cyclooxygenase-1 (Homo sapiens, UniProt P23219); construct: The cultured U-937 (humane lymphoma cell, obtained from Korean cell line bank) was centrifuged to collect the pellet; endogenous in cells; host or cells: U-937 (human lymphoma cell line, Korean cell line bank); test: Inhibition of cyclooxygenase-1 in U-937 cells (PGE2 quantitation); format: cell-based; conditions: 30 μM; U-937 cells
Sequence (P23219 24-599): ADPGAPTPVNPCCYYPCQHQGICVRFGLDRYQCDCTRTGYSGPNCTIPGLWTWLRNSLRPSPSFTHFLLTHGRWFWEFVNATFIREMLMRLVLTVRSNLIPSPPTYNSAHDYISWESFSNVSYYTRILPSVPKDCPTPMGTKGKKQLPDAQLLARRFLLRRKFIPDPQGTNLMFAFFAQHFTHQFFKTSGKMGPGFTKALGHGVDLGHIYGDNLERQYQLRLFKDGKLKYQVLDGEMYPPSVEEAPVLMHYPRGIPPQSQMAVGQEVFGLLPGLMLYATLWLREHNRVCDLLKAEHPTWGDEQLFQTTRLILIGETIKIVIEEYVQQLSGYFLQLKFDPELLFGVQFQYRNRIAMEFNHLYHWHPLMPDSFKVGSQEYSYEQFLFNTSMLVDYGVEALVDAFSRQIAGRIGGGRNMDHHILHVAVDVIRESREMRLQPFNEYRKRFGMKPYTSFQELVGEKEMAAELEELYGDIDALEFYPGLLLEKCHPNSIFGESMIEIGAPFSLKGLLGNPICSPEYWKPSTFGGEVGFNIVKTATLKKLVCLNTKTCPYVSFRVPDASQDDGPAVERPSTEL
Okay, here is how we bin by Inhibitory effects of cyclooxygenase (COX): COX-1: lo = under 50 % inhibition, mid = from 50 % inhibition up to 80 % inhibition, hi = 80 % inhibition and over

COc1cc(OC)cc(-c2nc(C)nn2-c2ccc(S(N)(=O)=O)cn2)c1 [Example 22] | lo
Cc1nc(-c2ccc(F)cc2)n(-c2ccc(S(N)(=O)=O)cn2)n1 [Example 15] | lo
Cc1ccc(-c2nc(C)nn2-c2ccc(S(N)(=O)=O)cn2)cc1 [Example 18] | mid
COc1ccc(-c2nc(C)nn2-c2ccc(S(N)(=O)=O)cc2)cc1 [Example 6] | hi
COc1ccc(-c2nc(C)nn2-c2ccc(S(N)(=O)=O)cn2)cc1 [Example 19] | mid

## Input Sort into band: COc1ccc(-c2nc(C)nn2-c2ccc(S(N)(=O)=O)cc2)cc1OC [Example 12]
## Output lo

## Input Try this compound next: Cc1nc(-c2cccc(Cl)c2)n(-c2ccc(S(N)(=O)=O)cn2)n1 [Example 21]
## Output mid

## Input Try this compound next: Cc1nc(-c2ccccc2)n(-c2ccc(S(C)(=O)=O)cc2)n1 [Example 24]
## Output mid

## Input Try this compound next: COc1ccccc1-c1nc(C)nn1-c1ccc(S(N)(=O)=O)cc1 [Example 11]
## Output mid

## Input Try this compound next: Cc1nc(-c2ccc(Br)cc2)n(-c2ccc(S(N)(=O)=O)cc2)n1 [Example 4]
## Output hi

## Input Try this compound next: Cc1nc(-c2ccccc2)n(-c2ccc(S(N)(=O)=O)cn2)n1 [Example 14]
## Output lo

## Input Try this compound next: Cc1nc(-c2cccc(Cl)c2)n(-c2ccc(S(N)(=O)=O)cc2)n1 [Example 8]
## Output hi

## Input Try this compound next: Cc1nc(-c2ccc(Cl)cc2)n(-c2ccc(S(N)(=O)=O)cc2)n1 [Example 3]
## Output lo
